Assay: gradient 5% acetonitrile 3 min, to 50% in 2 min, to 85% in 15 min, held 3 min, 100 µL/min
Settings: column: Zorbax Extend-C18 2.1 x 50 mm; eluents: water / acetonitrile, 0.1% formic acid
# key: entry, value: RP-LC retention time

MOLECULE	RP-LC retention time, s
c1ccc2sc(C3(N4CCCC4)CCCCC3)cc2c1	799
O=C(COc1ccccc1)Nc1ccccc1-c1nc2ccccc2s1	1320
CCN1CCCn2cc(S(=O)(=O)Nc3ccccc3C)cc2C1=O	720
CSc1ccccc1NC(=O)c1cc(=O)c(OCc2ccc(F)cc2)co1	859
CCCCN(C)C(=O)C1CCCN(c2ccc(-c3ccc(C)cc3)nn2)C1 (stereo not given)	750
O=C(CSc1nnc2c3cc(-c4ccccc4)nn3ccn12)Nc1cccc(C(F)(F)F)c1	969
Cc1nc(CC(=O)N2CCC(C(N)=O)CC2)cs1	646
CCN1C(=O)C(C)(C(=O)NCc2cccc(Cl)c2)Oc2cccnc21 (stereo not given)	903
Cc1nn(-c2nc(-c3ccc(F)cc3)cs2)c(C)c1CC(=O)Nc1ccc(Cl)cc1	1190
Cc1ccc(S(=O)(=O)n2c(N)nc3ccccc32)cc1	825
Cc1nn(-c2ccc(Cl)cc2)c(C)c1S(=O)(=O)N1CCC(C(=O)N2CCOCC2)CC1	810
CCc1nnc(-c2ccc3ccn(CC(=O)NCc4ccccc4)c3c2)o1	1300
O=C(Cn1ccc2ccccc21)NCCn1ncccc1=O	625
O=C(NCc1ccc(F)cc1F)C1CCc2nc(N3CCOCC3)ncc2C1 (stereo not given)	682
Cc1ccc(-c2cc(C(=O)N(C)Cc3ccccc3)c(C)[nH]2)cc1C	1040
CCN1C(=O)c2cccnc2Sc2cc(C(=O)NC(C)C)ccc21	697
Cc1ccc(C)c(NC(=O)C2CCCN(c3cn[nH]c(=O)c3)C2)c1 (stereo not given)	668
CCS(=O)(=O)Nc1ccc(C2(C(=O)NCc3ccc(F)cc3F)CCCCC2)cc1	972
COc1ccc(Cn2c(CO)cnc2SCC(=O)N2CCCc3ccccc32)cc1	702
Cc1cc(OCC(=O)NCc2ccc3c(c2)OCO3)nc(N2CCCCCC2)n1	594
